Recorded values, source the supplement of paper PMC6555819.

Test system: VDR:RXRa (NR concentration 270 nM, RXRa partner concentration 90 nM)
Assay: PBM binding z-score (relative to random genomic background probes); higher = stronger binding; sequences stand for … in GC…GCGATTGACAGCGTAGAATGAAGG
Hi there, I'd appreciate the recorded PBM binding z-score for every entry that follows.
Answer field: number only, no words.

Task item: Query PBM binding z-score for `TCAAGTAGGTTAGGGGCATTCAGAATGGCGTCGA`
Reply: 1.05

Task item: Query PBM binding z-score for `GCAGCTAGGTCAACTGATGGTCAGCTAAAGCTCG`
Reply: 1.19

Task item: Query PBM binding z-score for `CCGAGTAGGTTATGGGGCACTCAGGCAACGGTGA`
Reply: -0.0808

Task item: Query PBM binding z-score for `TAGCCTAGGTCAGGCGGGCCAGTATAGTGTCGGC`
Reply: 0.804

Task item: Query PBM binding z-score for `ATCTCTAGATAAAAGTTCAGTGAATCCCGAGGAT`
Reply: 0.828

Task item: Query PBM binding z-score for `CGTACAGGGTCAGCTAGGCCAGAGTAGGGACGGC`
Reply: 3.78

Task item: Query PBM binding z-score for `ATCTCTAGGTAACAAGTTCAGTGAAAGAGAGGAC`
Reply: 2.13

Task item: Query PBM binding z-score for `TCTGCTAGGTCAACGAAGGTCAGCTAATCTGCTA`
Reply: 4.97

Task item: Query PBM binding z-score for `CGTCAGAGTTCAACTAAGGTAACGTAAAGCACGC`
Reply: 5.28

Task item: Query PBM binding z-score for `TCTATTAGTTGAGGGGCAACCGACGAGTCCGTTT`
Reply: 0.965

Task item: Query PBM binding z-score for `TCTTGTAGATCAAACAGGTTAAGAAAGCCTGAGT`
Reply: 0.979

Task item: Query PBM binding z-score for `GTACCAAGGTGAAAAGGTCGTTGATGAGTAGGCG`
Reply: 2.59

Task item: Query PBM binding z-score for `TTACCAAGGTGAAGGTGGTTGATCCCTCTGTAGA`
Reply: 0.0919

Task item: Query PBM binding z-score for `CGTCCAAGGTCAGAGAGGTCTGTGAATGCCGAGT`
Reply: 4.72

Task item: Query PBM binding z-score for `CTCGAAAGGTCGTTTGAGGTGAGTATACGGATAA`
Reply: 4.84

Task item: Query PBM binding z-score for `TCATATAGGTAATACTGGTGAAAGTCGGCATCTA`
Reply: 0.963

Task item: Query PBM binding z-score for `ACAGACAGGTGATGAAGGTAACTCCGGCTATCAT`
Reply: 0.125

Task item: Query PBM binding z-score for `CAGCCTAGGTCAGGGCCATTATAGGAGGAACGTT`
Reply: 0.399

Task item: Query PBM binding z-score for `CGTCAAAGTTCAACTAAGGTAACGTCAAGCACGC`
Reply: 4.83

Task item: Query PBM binding z-score for `GCATATAGGTAATACAATGTGAAAGTCCGATTGT`
Reply: -0.0597

Task item: Query PBM binding z-score for `TCTTGTAGATCAATCGAGGTTAAGAAAGTGCGCT`
Reply: 1.75

Task item: Query PBM binding z-score for `ACTGTTAGTTGACTTAGGGCAACCGATACGACGC`
Reply: 0.59

Task item: Query PBM binding z-score for `CGAACGAGGGCATGATTTGATAGCAAATGCCGAT`
Reply: 0.55

Task item: Query PBM binding z-score for `GCAGACAGGTGAAACGCAGGTAACTCGGGGTGGC`
Reply: -0.198

Task item: Query PBM binding z-score for `ACGAGCAGGCCAAGGGTCACTCAAGATTAGTCCG`
Reply: 2.72

Task item: Query PBM binding z-score for `ATCGAAAGGTCTACGAGGTGAGTATACACCGTTT`
Reply: 1.6
